target: T1, recombinant human EGFR extracellular domain with 6xHis (human, UniProt P00533 25-645); assay: SPR; EGFR ECD saturated with mix N=6: 1261+1347+992+1024+1030+1361
T1 construct: In-house protein; also called 6xHis EGFR ECD; soluble human EGFR ECD; not shown: 6xHis tag
EXPERIMENTAL_ENDPOINT: Inhibition Sample mAb (%)
Record the value in %, omitting the unit from your answer.

Examples with their reported Inhibition Sample mAb follow.
antibody 1347 (antibody, human IgG1, kappa, V domains shown, Chimeric mouse/human IgG1 kappa) VH: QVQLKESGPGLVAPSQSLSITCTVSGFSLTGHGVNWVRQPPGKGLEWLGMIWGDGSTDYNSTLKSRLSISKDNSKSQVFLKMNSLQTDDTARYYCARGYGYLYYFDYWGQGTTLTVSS VL: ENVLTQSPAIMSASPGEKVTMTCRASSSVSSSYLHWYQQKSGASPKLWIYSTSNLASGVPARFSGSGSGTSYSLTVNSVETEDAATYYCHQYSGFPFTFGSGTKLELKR :: 80
antibody 1030 (antibody, human IgG1, kappa, V domains shown, Chimeric mouse/human IgG1 kappa) VH: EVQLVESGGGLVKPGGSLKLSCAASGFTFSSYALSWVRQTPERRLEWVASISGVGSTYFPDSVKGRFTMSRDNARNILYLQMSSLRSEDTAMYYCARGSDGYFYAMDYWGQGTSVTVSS VL: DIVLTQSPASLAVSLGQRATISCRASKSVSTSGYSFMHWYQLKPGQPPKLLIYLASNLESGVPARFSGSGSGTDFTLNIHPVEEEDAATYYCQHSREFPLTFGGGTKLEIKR :: 87
antibody 1261 (antibody, human IgG1, kappa, V domains shown, Chimeric mouse/human IgG1 kappa) VH: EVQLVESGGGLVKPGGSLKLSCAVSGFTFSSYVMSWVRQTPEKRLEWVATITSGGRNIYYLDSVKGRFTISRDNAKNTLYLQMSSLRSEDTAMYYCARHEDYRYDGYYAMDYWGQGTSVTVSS VL: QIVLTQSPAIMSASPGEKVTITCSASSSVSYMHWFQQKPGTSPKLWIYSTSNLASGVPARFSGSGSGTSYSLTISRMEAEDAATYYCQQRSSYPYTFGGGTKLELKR :: 95

Proceed to the following item.
Prompt line: Give Inhibition Sample mAb for antibody 1024 (antibody, human IgG1, kappa, V domains shown, Chimeric mouse/human IgG1 kappa) VH: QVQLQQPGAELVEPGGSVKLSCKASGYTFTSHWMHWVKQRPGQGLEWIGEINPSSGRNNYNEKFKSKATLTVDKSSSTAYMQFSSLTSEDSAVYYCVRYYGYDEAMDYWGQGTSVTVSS VL: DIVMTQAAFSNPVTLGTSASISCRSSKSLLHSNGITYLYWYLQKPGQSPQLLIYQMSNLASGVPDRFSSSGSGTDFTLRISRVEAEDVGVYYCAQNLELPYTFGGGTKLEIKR
Response line: 113
